// each record: one item and its AC50 for UniProtKB P10635
Sequence (P10635 whole entry): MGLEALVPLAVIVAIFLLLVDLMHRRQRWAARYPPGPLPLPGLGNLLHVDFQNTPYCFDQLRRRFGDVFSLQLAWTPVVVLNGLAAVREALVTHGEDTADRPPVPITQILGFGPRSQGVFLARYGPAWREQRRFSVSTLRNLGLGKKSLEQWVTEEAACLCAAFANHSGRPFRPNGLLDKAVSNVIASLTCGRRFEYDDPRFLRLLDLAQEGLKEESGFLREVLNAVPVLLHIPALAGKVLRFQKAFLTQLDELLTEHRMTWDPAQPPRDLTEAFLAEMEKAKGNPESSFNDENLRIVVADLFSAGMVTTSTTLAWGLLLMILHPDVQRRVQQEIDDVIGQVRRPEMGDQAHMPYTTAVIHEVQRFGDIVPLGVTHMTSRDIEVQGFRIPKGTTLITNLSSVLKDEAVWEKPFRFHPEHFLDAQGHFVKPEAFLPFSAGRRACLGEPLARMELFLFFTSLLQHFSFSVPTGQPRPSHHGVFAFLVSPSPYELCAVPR

Solved cases below.
FC(F)(F)c1ccccc1-c1cncnc1Nc1ccccc1 :: 39.8 µM (inconclusive)
O=C(c1ccc2c(c1)OCCO2)C1CCN(S(=O)(=O)c2ccccc2F)CC1 :: 0.0316 µM (inconclusive)
FC(F)(F)c1ccccc1-c1cc(NCc2ccccc2)ncn1 :: 39.8 µM (inconclusive)
COc1cccc(NS(=O)(=O)c2ccc3ncc(C(=O)NCCN4CCOCC4)c(O)c3c2)c1 :: 28.2 µM (inconclusive)
CN(C)c1ccc(-c2cncnc2Nc2ccccc2)cc1 :: 20 µM (inconclusive)

Any idea what AC50 was measured for "NCCc1c[nH]c2ccccc12" ?
31.6 µM (inconclusive)

Similarly, "CCOC(=O)O[C@]1(C(=O)COC(=O)CC)CC[C@@H]2[C@@H]3CCC4=CC(=O)C=C[C@@]4(C)[C@H]3[C@H](O)C[C@]21C" ?
12.6 µM (inconclusive)

Please answer likewise for "O=C(c1cccc(F)c1)N1CCC2(CC1)CCN(c1ncccn1)CC2"
15.8 µM (inconclusive)

Next up: "COc1ccc(-n2c(=O)cnc3cnc(Oc4cccc(Cl)c4)nc32)cc1"
39.8 µM (inconclusive)

Now the compound "O=[N+]([O-])c1ccc(S(=O)(=O)Cc2ccccc2)c([N+](=O)[O-])c1"
2.51 µM (inconclusive)

Now consider "COc1ccc2nc(O)c(CN(CCc3ccccc3)C(C)=O)cc2c1" .
14.1 µM (inconclusive)

What would you report for "COc1cc2c(cc1O)C[C@@H]1c3c(cc(O)c(OC)c3-2)CCN1C" ?
3.16 µM (inconclusive)

Please give the result for "O=C(CCNS(=O)(=O)c1ccc2c(c1)CCC(=O)N2)NCc1ccc2c(c1)OCO2" too.
22.4 µM (inconclusive)

Would you kindly repeat that for "COc1ccc(CNc2ncnc3ccc(-c4ccc(C(=O)N(C)C)cc4)cc23)c(OC)c1" ?
20 µM (inconclusive)

====

SYSTEM NAME: DNA repair and recombination protein RAD54-like (Homo sapiens, UniProt Q92698)
Sequence (Q92698 whole entry): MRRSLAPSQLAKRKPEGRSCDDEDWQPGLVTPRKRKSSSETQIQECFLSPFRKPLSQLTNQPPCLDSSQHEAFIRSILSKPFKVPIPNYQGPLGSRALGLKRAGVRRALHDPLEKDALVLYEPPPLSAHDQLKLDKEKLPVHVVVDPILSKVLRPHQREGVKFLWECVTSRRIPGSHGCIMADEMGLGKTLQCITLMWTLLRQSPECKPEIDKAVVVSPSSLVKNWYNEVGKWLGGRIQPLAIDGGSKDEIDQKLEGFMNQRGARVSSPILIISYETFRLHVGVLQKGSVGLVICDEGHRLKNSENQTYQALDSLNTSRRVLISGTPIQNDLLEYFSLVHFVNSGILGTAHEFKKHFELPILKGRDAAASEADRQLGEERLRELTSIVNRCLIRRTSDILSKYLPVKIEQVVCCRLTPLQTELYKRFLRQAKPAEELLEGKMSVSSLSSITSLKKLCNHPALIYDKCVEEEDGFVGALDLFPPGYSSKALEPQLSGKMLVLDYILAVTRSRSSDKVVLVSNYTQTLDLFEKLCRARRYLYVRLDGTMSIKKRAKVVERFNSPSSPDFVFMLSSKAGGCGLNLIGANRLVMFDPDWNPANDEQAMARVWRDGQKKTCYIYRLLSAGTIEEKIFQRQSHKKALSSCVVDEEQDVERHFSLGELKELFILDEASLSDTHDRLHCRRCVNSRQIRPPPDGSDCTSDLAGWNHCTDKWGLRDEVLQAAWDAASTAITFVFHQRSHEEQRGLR
TEST: inhibitors of human RAD54 branch migration, confirmation, biochemical, fluorescence, cherry-picked samples, dose series (AID 651657)
Format: functional
Active and inactive are the calls of the source.
ENDPOINT: AC50

Study these solved cases before continuing.
COc1ccc2nc(C)cc(Nc3ccc(C)cc3)c2c1 :: 19.4 µM (active)
CCCN(CCC)c1nc(-c2ccccn2)nc2ccccc12 :: 13.3 µM (active)
CC(=O)Nc1cc(-c2cccc(C(=O)NCCN(C)C)c2)cn2c(-c3ccc(C(C)=O)cc3)cnc12 :: 16.1 µM (active)

Now for another entry.
Quick check: AC50 on DNA repair and recombination protein RAD54-like (Homo sapiens, UniProt Q92698), item "CCOc1cc2[nH]c(=S)n(Cc3ccc(C(=O)NCCCN(CC)CC)cc3)c(=O)c2cc1OCC" ?
40.1 µM (active)

====

Attribute: GI50
System: P388/ADR
TEST: cells
Format: functional
TEST CONTEXT: Mus musculus
Calls of active or inactive are those of the source.

Known results for molecules:
Cc1[nH]c(=O)[nH]c(=O)c1N(CCF)CCCl :: 330 µM (inactive)
CSc1nc(NC2OCC(O)C(O)C2O)c(N)c(=O)[nH]1 (centres undefined) :: > 100 µM (inactive)
C=C(OC1C(C)=C2C(C1OC(=O)CCCCCCC)C(C)(OC(C)=O)CC(OC(=O)CCC)C1(O)C2OC(=O)C1(C)O)/C(C)=C/C (centres undefined) :: 0.0251 µM (active)

Would you kindly look at the next entry?
// GI50 lookup, key: "Nc1ccn([C@@H]2C=C(CO)[C@@H](O)[C@H]2O)c(=O)n1"
0.0619 µM (active)
